Data origin, for the record: the supplement of paper PMC9112550

System: Escherichia coli TOP10
EXPERIMENT: shrunken log2 fold change of peptide-encoding DNA abundance (4.5 h post-induction vs induction); higher = less antimicrobial activity (less host growth inhibition)
PROTOCOL CONDITIONS: time post-induction: 4.5 h; library: site-saturation at positions 5, 18, 19, 20
// label = rule met if shrunken log2 fold change is not less than -0.02, otherwise rule not met

RRIRWRPPRLPRPRPRPSDHPRP ... rule not met
RRIRYRPPRLPRPRPRPQELPRP ... rule met
RRIRYRPPRLPRPRPRPNQNPRP ... rule not met
RRIRVRPPRLPRPRPRPDNQPRP ... rule not met
RRIRLRPPRLPRPRPRPILGPRP ... rule met

Query string: shrunken log2 fold change >= -0.02 for RRIRYRPPRLPRPRPRPASWPRP ?
Result string: rule met

Query string: shrunken log2 fold change >= -0.02 for RRIRIRPPRLPRPRPRPLKSPRP ?
Result string: rule not met

Query string: shrunken log2 fold change >= -0.02 for RRIRHRPPRLPRPRPRPTYPPRP ?
Result string: rule met

* * *

Test system: Escherichia coli TOP10
EXPERIMENT: shrunken log2 fold change of peptide-encoding DNA abundance (4.5 h post-induction vs induction); higher = less antimicrobial activity (less host growth inhibition)
PROTOCOL CONDITIONS: time post-induction: 4.5 h; library: site-saturation at positions 5, 18, 19, 20
Parameter shrunken log2 fold change: see the listing below.
# output: bare number, no unit

Query string: Enter shrunken log2 fold change (test system Escherichia coli TOP10) for RRIRTRPPRLPRPRPRPPWRPRP
Result string: 0.747

Query string: Enter shrunken log2 fold change (test system Escherichia coli TOP10) for RRIRFRPPRLPRPRPRPAPNPRP
Result string: 0.408

Query string: Enter shrunken log2 fold change (test system Escherichia coli TOP10) for RRIRRRPPRLPRPRPRPYCEPRP
Result string: -0.102

Query string: Enter shrunken log2 fold change (test system Escherichia coli TOP10) for RRIRKRPPRLPRPRPRPAELPRP
Result string: 0.552

Query string: Enter shrunken log2 fold change (test system Escherichia coli TOP10) for RRIRDRPPRLPRPRPRPHCHPRP
Result string: -0.276

Query string: Enter shrunken log2 fold change (test system Escherichia coli TOP10) for RRIRVRPPRLPRPRPRPWAGPRP
Result string: 0.116

Query string: Enter shrunken log2 fold change (test system Escherichia coli TOP10) for RRIRVRPPRLPRPRPRPHMHPRP
Result string: -0.517

* * *

System: Escherichia coli TOP10;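 also: peptides expressed intracellularly from a pBAD plasmid library in pooled LB shake-flask culture, induced with 0.3% L-arabinose, DNA abundance read by NGS, three biological replicates, DESeq2 with apeglm shrinkage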
EXPERIMENT: shrunken log2 fold change of peptide-encoding DNA abundance (4.5 h post-induction vs induction); higher = less antimicrobial activity (less host growth inhibition)
PROTOCOL CONDITIONS: time post-induction: 4.5 h; library: site-saturation at positions 5, 18, 19, 20
RECORDED METRIC: shrunken log2 fold change

Past entries and their recorded results:
RRIRDRPPRLPRPRPRPSAKPRP ... 0.23
RRIRLRPPRLPRPRPRPHCCPRP ... -0.376
RRIRMRPPRLPRPRPRPLLCPRP ... 0.473
RRIRERPPRLPRPRPRPMQRPRP ... -0.00559
RRIRRRPPRLPRPRPRPLDVPRP ... 0.179

Query string: Supply shrunken log2 fold change value. Item: RRIRYRPPRLPRPRPRPGAVPRP
Result string: 0.929

Query string: Supply shrunken log2 fold change value. Item: RRIRPRPPRLPRPRPRPVAIPRP
Result string: -0.0776

Query string: Supply shrunken log2 fold change value. Item: RRIRERPPRLPRPRPRPGIRPRP
Result string: -0.0819

Query string: Supply shrunken log2 fold change value. Item: RRIRFRPPRLPRPRPRPCWEPRP
Result string: -0.356
